system: SF-268; assay: NCI tumour cell line growth inhibition, 48 h
The source made the active and inactive calls. Cut-off read from the data, not from the text of the source: active = GI50 up to about 1.1 µM and inactive = higher.
Each entry below carries its reported GI50.

COMPOUND	GI50
CCCCn1cnnc1NS(=O)(=O)c1cc(C)c(Cl)cc1SCC(=O)O	> 10 µM (inactive)
COc1cc([C@@H]2c3cc4c(cc3[C@@H](c3c(O)cc(O)c5c3O[C@H](c3ccc(O)c(O)c3)[C@H](OC(=O)c3cc(O)c(O)c(O)c3)C5)[C@H]3COC(=O)[C@H]23)OCO4)cc(OC)c1O	30.8 µM (inactive)
CC1(C(=O)O)CCCC1C(=O)O (centres undefined)	> 100 µM (inactive)
CNC(=O)CCNC(=O)CCC(=O)N(C)C	> 100 µM (inactive)
COc1cc2c(cc1O)C1C(O)C(O)C=C3CCN(C2)C31 (centres undefined)	2.2 µM (inactive)
O=C(/C=C/c1ccc([N+](=O)[O-])cc1)c1ccc(NCc2nc3ccccc3[nH]2)cc1	5.71 µM (inactive)
Nc1cc2c3c(cccc3c1)NC2=O	11.2 µM (inactive)
COc1nc2ncc([C@@H](OC(C)=O)[C@@H](COC(C)=O)OC(C)=O)nc2c(=O)n1C	> 100 µM (inactive)
O=[N+]([O-])/C(Cl)=C(\Sc1ccccc1)C(Cl)=C(Cl)Cl	1.4 µM (inactive)
c1cc(-c2ccc(-c3ccc(C4=NCCCN4)cc3)o2)ccc1C1=NCCCN1	> 100 µM (inactive)
COC(=O)C1Cc2c([nH]c3ccccc23)C(c2cccc(O)c2)N1 (centres undefined)	40.8 µM (inactive)
Nc1nncc2[nH]cnc12	50.5 µM (inactive)
COc1ccc2c(c1)[n+]([O-])c(/C(C)=N/NC(=O)CC#N)c[n+]2[O-]	> 100 µM (inactive)
COc1ccc(SCc2cc(OCc3ccccc3)c(OCc3ccccc3)c(OCc3ccccc3)c2)cc1	1.77 µM (inactive)
N#CCCC(CC#N)N1CCN(CCO)CC1 (centres undefined)	> 100 µM (inactive)
Cc1n[nH]c(=O)n1-c1cccnc1	> 100 µM (inactive)
Cc1ccc(-c2nc(N/N=C/C=C/c3ccccc3)c3ccccc3n2)cc1	33.5 µM (inactive)
COC(=O)C1=C(c2cc(OC)c(OC)c(OC)c2)OC(c2ccc(OC)c(OC)c2)C1 (centres undefined)	55.8 µM (inactive)
COC(=O)C(Cc1cn(C(C)n2cc(CC(NC(C)=O)C(=O)OC)c3ccccc32)c2ccccc12)NC(C)=O (centres undefined)	48.1 µM (inactive)
